# assayed.system: PPARa:RXRa (Homo sapiens, UniProt Q07869;P19793 full;full)
# Sequence (Q07869 whole entry, chain 1 of 2): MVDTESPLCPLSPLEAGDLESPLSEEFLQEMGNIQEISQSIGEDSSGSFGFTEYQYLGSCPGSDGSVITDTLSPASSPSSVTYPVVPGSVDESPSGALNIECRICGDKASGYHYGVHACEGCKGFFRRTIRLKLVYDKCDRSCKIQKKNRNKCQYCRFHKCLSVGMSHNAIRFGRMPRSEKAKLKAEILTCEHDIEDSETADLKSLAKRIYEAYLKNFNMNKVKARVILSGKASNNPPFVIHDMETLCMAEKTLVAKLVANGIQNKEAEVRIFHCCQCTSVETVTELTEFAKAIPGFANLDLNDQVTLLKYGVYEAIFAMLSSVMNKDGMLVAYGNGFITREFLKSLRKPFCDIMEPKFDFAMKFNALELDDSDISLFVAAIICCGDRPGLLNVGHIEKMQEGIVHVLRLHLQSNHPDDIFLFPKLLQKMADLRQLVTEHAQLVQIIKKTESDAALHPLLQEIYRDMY
# Sequence (P19793 whole entry, chain 2 of 2): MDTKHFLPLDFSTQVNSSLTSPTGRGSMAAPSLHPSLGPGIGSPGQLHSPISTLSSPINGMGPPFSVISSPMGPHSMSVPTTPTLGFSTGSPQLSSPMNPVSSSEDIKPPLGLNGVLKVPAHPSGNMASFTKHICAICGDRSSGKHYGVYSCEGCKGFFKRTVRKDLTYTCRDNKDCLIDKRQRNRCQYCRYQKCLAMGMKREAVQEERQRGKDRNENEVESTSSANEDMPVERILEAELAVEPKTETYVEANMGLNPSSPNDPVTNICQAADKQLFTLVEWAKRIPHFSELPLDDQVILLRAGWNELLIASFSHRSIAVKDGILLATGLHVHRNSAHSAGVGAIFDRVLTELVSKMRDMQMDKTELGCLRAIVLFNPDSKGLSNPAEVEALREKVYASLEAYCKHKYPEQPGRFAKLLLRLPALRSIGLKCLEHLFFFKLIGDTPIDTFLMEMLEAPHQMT
# assay.protocol: no ligand; PBM; 270 nM : 90 nM RXRa; PBS pH 7.4, 2% milk, 0.02% Triton X-100, 1 mM DTT, BSA, 0.4 mg/ml salmon testes DNA
# assay.context: tags: GST kept;His cleaved; copies: 1;1; label: surface-attached array probe
readout.kind: binding signal

binder="NRC3_wobSeed141_DR5_T5A_o1 (dsDNA) DNA 1: GCAGACAAAGTTCAGGACGAGGTAACGTAAAGCACGGCGATTGACAGCGTAGAATGAAGG DNA 2: CCTTCATTCTACGCTGTCAATCGCCGTGCTTTACGTTACCTCGTCCTGAACTTTGTCTGC" reported="3 PBM z-score against 500 random probes"
